Target Desc: IRAK4 (Homo sapiens, UniProt Q9NWZ3)
Construct: endogenous in cells; host or cells: OCI-LY10
Sequence (Q9NWZ3 whole entry): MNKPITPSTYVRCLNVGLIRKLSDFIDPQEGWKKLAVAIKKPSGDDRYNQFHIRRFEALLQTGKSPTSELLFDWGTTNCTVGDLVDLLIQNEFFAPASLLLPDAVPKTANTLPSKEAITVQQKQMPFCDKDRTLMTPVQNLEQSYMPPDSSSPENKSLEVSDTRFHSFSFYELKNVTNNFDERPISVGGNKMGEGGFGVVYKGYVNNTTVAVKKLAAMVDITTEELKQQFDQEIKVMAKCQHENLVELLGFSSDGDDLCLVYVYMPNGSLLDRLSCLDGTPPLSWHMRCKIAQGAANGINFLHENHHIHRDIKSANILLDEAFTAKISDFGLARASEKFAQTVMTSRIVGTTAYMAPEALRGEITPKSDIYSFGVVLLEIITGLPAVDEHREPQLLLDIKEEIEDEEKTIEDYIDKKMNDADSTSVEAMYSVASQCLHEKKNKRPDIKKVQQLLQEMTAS
Experimental Protocol: IRAK4 MSD degradation in OCI-LY10
Type: cell-based
Measurement Conditions: OCI-LY10 cells, 24 hrs, Meso Scale Discovery
# DC50 per record follows

Solved cases (7 shown):
CN(C[C@H]1CC[C@H](n2cc3cc(NC(=O)c4cccc(C(F)(F)F)n4)c(C(C)(C)O)cc3n2)CC1)[C@@H]1CCN(c2cccc3c2n(C)c(=O)n3C2CCC(=O)NC2=O)C[C@@H]1F (some centres unmarked) [I-69]: < 10 nM
Cn1c(=O)n(C2CCC(=O)NC2=O)c2cccc(N3CCC(F)(CN4CCC(c5nc6cc(C(C)(C)O)c(NC(=O)c7cccc(C(F)(F)F)n7)cc6s5)CC4)CC3)c21 (centres unmarked) [I-191]: 10 to 100 nM
CC(C)(O)c1cc2nn([C@H]3CC[C@H](CN4CCN(c5cccc(NC6CCC(=O)NC6=O)c5)CC4)CC3)cc2cc1NC(=O)c1cccc(C(F)(F)F)n1 (some centres unmarked) [I-77]: 10 to 100 nM
Cn1c(=O)n(C2CCC(=O)NC2=O)c2cccc([C@@H]3CCN(C[C@H]4CC[C@H](n5cc6cc(NC(=O)c7ccnc(C(F)(F)F)n7)ccc6n5)CC4)C[C@H]3F)c21 (some centres unmarked) [I-190]: > 200 nM
Cn1c(=O)n(C2CCC(=O)NC2=O)c2cccc([C@@H]3CCN(C[C@H]4CC[C@H](n5cc6cc(NC(=O)c7cncc(C(F)(F)F)n7)c(S(C)(=O)=O)cc6n5)CC4)C[C@H]3F)c21 (some centres unmarked) [I-346]: < 10 nM
CN(C[C@H]1CC[C@H](c2nc3cc(C(C)(C)O)c(NC(=O)c4cccc(C(F)(F)F)n4)cc3o2)CC1)[C@H]1CCN(c2cccc3c2n(C)c(=O)n3C2CCC(=O)NC2=O)C[C@@H]1F (some centres unmarked) [I-138]: < 10 nM
Cc1nn(C2CCC(=O)NC2=O)c2cccc([C@H]3CCN(C[C@H]4CC[C@H](n5cc6cc(NC(=O)c7cncc(C(F)(F)F)n7)ncc6n5)CC4)C[C@@H]3F)c12 (single isomer, unassigned) [I-341]: 10 to 100 nM

Lab note: next compound to report on.
Need DC50, item COc1cc2nc([C@H]3CC[C@H](CN(C)[C@H]4CCN(c5cccc6c5n(C)c(=O)n6C5CCC(=O)NC5=O)C[C@@H]4F)CC3)cn2cc1NC(=O)c1cncc(C(F)(F)F)n1 (single isomer, unassigned) [I-318]
< 10 nM

* * *

Experimental Protocol: Rodent pharmacokinetics (rat PK)
Type: in vivo
Measurement Conditions: po, dosed intravenously or orally by gavage, plasma, read-out: F % (bioavailability)
Metric Name: bioavailability

Solved cases (3 shown):
Cn1c(=O)n(C2CCC(=O)NC2=O)c2cccc([C@@H]3CCN(C[C@H]4CC[C@H](c5nc6cc(C(C)(C)O)c(NC(=O)c7cncc(C(F)(F)F)n7)cc6s5)CC4)C[C@H]3F)c21 (stereo partly shown) [I-173]: ≤ 5%
Cn1c(=O)n(C2CCC(=O)NC2=O)c2cccc(N3CCC(F)(CN4CCC(c5nc6cc(C(C)(C)O)c(NC(=O)c7cccc(C(F)(F)F)n7)cc6o5)CC4)CC3)c21 (stereo not shown) [I-197]: ≤ 5%
Cc1nn(C2CCC(=O)NC2=O)c2cccc([C@H]3CCN(C[C@H]4CC[C@H](n5cc6cc(NC(=O)c7cncc(C(F)(F)F)n7)ccc6n5)CC4)CC3(F)F)c12 (single isomer, unassigned) [I-372]: ≥ 5%

Lab note: next molecule to report on.
Need bioavailability, item Cn1c(=O)n(C2CCC(=O)NC2=O)c2cccc(N3CC4(CCN(C[C@H]5CC[C@H](c6nc7cc(C(C)(C)O)c(NC(=O)c8cncc(C#N)c8)cc7o6)CC5)CC4(F)F)C3)c21 (stereo partly shown) [I-410]
≥ 5%
